Quick reference: Percent Effect of the listed items.
biological target: AMP-activated protein kinase, AMPK (Homo sapiens) (UniProt P54646+O43741+P54619+Q9UGJ0+Q9Y478+Q13131+Q9UGI9); test: AMP-dependent Kinase enzyme assay. An in vitro enzyme assay that detects ADP turnover that is directly proportional to AMPK activity. This uses naive AMPK that is activated during the assay with MK-8722; type: functional; parameters: scale not given: direction of the effect not stated beside the values; details: 30 µM
VALUE_KIND: Percent Effect (%)

COMPOUND	OBSERVED_RESULT
CC(C)c1nnc2n1CCN(Cc1ccc3c(c1)OCO3)CC2	9.68
COc1cccc(NC(=O)NCC2CCCN(C3CCOCC3)C2)c1 (stereo not drawn)	6.25
Fc1cccc(CN2CCC[C@@H](Cn3nnc(-c4ccccn4)n3)C2)c1	10.2
O=C(NCCn1ccnc1-c1cc2n(n1)CCCNC2)c1ccncc1	0.773
Cc1nn(CCC(=O)NC2CCCOC2)c(C)c1C (stereo not drawn)	12.2
CC(C)c1nnc(C2CCN(CC(=O)Nc3cccnc3)CC2)o1	-5.27
Cc1nc(C(NC(=O)CN(C)C(C)C)c2ccccc2F)no1 (stereo not drawn)	-4.35
CCC(=O)Nc1cccc(OCC(=O)N[C@@H]2C[C@H]3CC[C@@H]2C3)c1	3.88
CC(C)OCCN1CCC(Nc2ncc(Br)cn2)CC1	10.5
COc1cc(-c2cccc3c2OC(CN)C3)ccc1O (stereo not drawn)	59.7
CCC(C)Oc1ccc(CNCCNC(C)=O)cc1Cl (stereo not drawn)	-6.19
c1cncc(CNCCc2cccs2)c1	-7.73
CCc1cc(N2CCC(NCCc3nc(C)c(C)s3)CC2)nc(C)n1	4.15
O=C(C1CNCCN1C(=O)CCOc1ccccc1)N1CCCC1 (stereo not drawn)	8.73
COCC(=O)N1CCC(c2c(C(=O)N(C)C)sc3ncccc23)C1 (stereo not drawn)	1.82
CCc1nc(CSc2nnc(N)n2C2CC2)no1	7.62
O=C(Cc1c(F)cccc1Cl)Nc1cccc(N2CCCC2)c1	-5.51
CN1CCCC1c1ccnc2nccn12 (stereo not drawn)	6.44
Cc1ccc(-c2cc(C(=O)NCC3CCOC3)n[nH]2)s1 (stereo not drawn)	-4.75
CCc1nnc(C(C)N2CCN(CCC(=O)NC3CC3)CC2)o1 (stereo not drawn)	8.34
CSc1ccc(C(=O)C2CCCN(C(=O)CCn3cncn3)C2)cc1 (stereo not drawn)	10.4
CC(=O)Nc1ccc(CNC(=O)CNCc2sc(C)nc2C)cc1	3.71
COCCCNC(=O)Cc1nc(-c2ccncc2)n[nH]1	14.5
CC(C)(O)CCc1cccc(C(=O)NCc2cnn3cccnc23)c1	-0.643
Cc1cc(C(=O)NC2CCN(c3nnc(C)c(C)c3C#N)CC2)no1	-21.4
CC(CC(=O)c1ccco1)NC(=O)c1ccon1 (stereo not drawn)	9.56
CC(=O)N[C@H]1CCO[C@@H](c2cccc(NC(=O)Cc3ccccc3)c2)C1	7.18
COc1ccc2c(c1)OCC(C(=O)NCc1nc3c(s1)CCCC3)C2 (stereo not drawn)	8.94
Cc1noc(C)c1-c1n[nH]c2c1CN(S(=O)(=O)c1cccnc1)CC2	1.02
Cc1ccccc1S(=O)(=O)N(C)[C@@H]1CC[C@@H](n2ccnc2C)[C@@H]1O	-13.8
CC(C)CN(C(=O)Nc1cccc(C(=O)N(C)C)c1)C1CC1	0.783
O=C(c1ccnc(-n2cnnc2)c1)N1CCCC2(CCOC2)C1 (stereo not drawn)	-4.79
Cc1nc(OCC(=O)N2CCCC2)cc(-n2cccn2)n1	3.39
CCC(=O)NCCc1cc2nc(-c3ccncc3)ccn2n1	18.1
CCc1nnc2n1CCN(C(=O)C(C)Oc1cccc(C#N)c1)C2 (stereo not drawn)	5.56
Cc1n[nH]c(C)c1CCc1ccc(S(C)(=O)=O)cc1	0.986
CC(C)(C)NC(=O)C1CCCCN1Cc1nccn1CC(F)(F)F (stereo not drawn)	-2.34
COC(=O)C1CN(Cc2ccn(-c3ccc(F)cc3)n2)C[C@@H](C)O1 (stereo partly drawn)	-6.96
COc1cccc(CCC(=O)Nc2cnc3c(c2)c(C)nn3C)c1OC	5
Cc1ncc(C(=O)N2CCCC2c2c(C)nn(C)c2C)s1 (stereo not drawn)	1.37
CC(C)(C)OC(=O)N(CCNS(=O)(=O)N1CCOCC1)C1CC1	8.24
COCCn1ccnc1C1CCCN(C(=O)CSc2nnc(C)o2)C1 (stereo not drawn)	1.51
Cc1nccn1CCN(C)C(=O)c1cn(CC2CCCCC2)nn1	9.45
NC(=O)CCn1ccc(NCc2cc(F)ccc2Br)n1	-0.0146
CC(C)n1cnnc1SCCN(C)c1ccccc1	8.44
N#Cc1ccc(CN(CC(N)=O)Cc2cccc(F)c2)cc1	-6
CN(C)c1cccc(C(=O)N2CCn3c(nnc3C3CC3)C2)c1	-2.33
O=C1CN(C(=O)CC2C(=O)NCCN2CC2CCCCC2)CCN1 (stereo not drawn)	-5.33
